Reported values of melting point for individual entries

compound: Cc1nc(C)c(COC(=O)[C@]23CCC(C)(C)CC2C2=CCC4[C@@]5(C)CC[C@H](OC(=O)[C@@H](N)CCCCN)C(C)(C)C5CC[C@@]4(C)[C@]2(C)CC3)nc1C (stereo partly drawn)
melting point: 87.5 to 88.2 °C
--
compound: Cc1nc(C)c(COC(=O)[C@]23CCC(C)(C)CC2C2=CCC4[C@@]5(C)CC[C@H](OC(=O)[C@@H](N)Cc6c[nH]c7ccccc67)C(C)(C)C5CC[C@@]4(C)[C@]2(C)CC3)nc1C (stereo partly drawn)
melting point: 206.9 to 207.7 °C
--
compound: Cc1nc(C)c(COC(=O)[C@]23CCC(C)(C)CC2C2=CCC4[C@@]5(C)CC[C@H](OC(=O)[C@@H](N)CO)C(C)(C)C5CC[C@@]4(C)[C@]2(C)CC3)nc1C (stereo partly drawn)
melting point: 107.1 to 108.5 °C
--
compound: Cc1nc(C)c(COC(=O)[C@]23CCC(C)(C)CC2C2=CCC4[C@@]5(C)CC[C@H](OC(=O)[C@@H](N)CC(C)C)C(C)(C)C5CC[C@@]4(C)[C@]2(C)CC3)nc1C (stereo partly drawn)
melting point: 89.6 to 91.6 °C
--
compound: Cc1nc(C)c(COC(=O)[C@]23CCC(C)(C)CC2C2=CCC4[C@@]5(C)CC[C@H](OC(=O)[C@@H]6CCCN6)C(C)(C)C5CC[C@@]4(C)[C@]2(C)CC3)nc1C (stereo partly drawn)
melting point: 89.6 to 91.3 °C
--
compound: Cc1nc(C)c(COC(=O)[C@]23CCC(C)(C)CC2C2=CCC4[C@@]5(C)CC[C@H](OC(=O)[C@H](C)N)C(C)(C)C5CC[C@@]4(C)[C@]2(C)CC3)nc1C (stereo partly drawn)
melting point: 89.7 to 92.1 °C
